// data source = patent US8742110B2

- system-tested: SSTR5 (Homo sapiens (Human), UniProt P35346)
- Sequence (P35346 whole entry): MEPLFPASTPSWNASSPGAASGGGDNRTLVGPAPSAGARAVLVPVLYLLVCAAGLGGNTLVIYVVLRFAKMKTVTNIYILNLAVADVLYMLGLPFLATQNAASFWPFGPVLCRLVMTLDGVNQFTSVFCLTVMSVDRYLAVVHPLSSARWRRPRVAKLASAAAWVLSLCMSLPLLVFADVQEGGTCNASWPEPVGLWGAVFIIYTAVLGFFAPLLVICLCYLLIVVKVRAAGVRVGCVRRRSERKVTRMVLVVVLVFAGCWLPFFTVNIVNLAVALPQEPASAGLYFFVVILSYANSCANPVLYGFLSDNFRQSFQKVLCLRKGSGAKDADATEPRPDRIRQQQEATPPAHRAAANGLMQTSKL
- protocol-summary: SSTR5 binding assay
- condition-notes: CHO-K1 membranes expressing cloned human SSTR5
Where a name gives a salt, the structure may show the parent alone.
endpoint: pIC50
# pIC50 = -log10(concentration in molar units)

What value of measured pIC50 is listed for O=C(O)c1ccc(N2CC3(CCN(Cc4nc(-c5ccccc5)oc4-c4ccc(F)c(Cl)c4)CC3)OC2=O)cc1 [Example 6-27, TFA salt] ?
6.92

Here is the next compound: CCOc1cc(CN2CCC3(CC2)CN(c2ccc(C(=O)O)cc2F)C(=O)O3)c(-c2ccc(F)c(F)c2F)cc1C [Example 4-21, TFA salt]
9.40

Here is the next compound: CCOc1cc(CN2CCC3(CC2)CN(c2ccc(C(=O)O)cc2)C(=O)O3)c(-c2cc(F)c(F)cc2F)cc1C [Example 4-11, TFA salt]
9.82

###

- system-tested: SSTR5 (Homo sapiens (Human), UniProt P35346)
- protocol-summary: SSTR5 binding assay
- condition-notes: CHO-K1 membranes expressing cloned human SSTR5
Where a name gives a salt, the structure may show the parent alone.
endpoint: pIC50
# pIC50 = -log10(concentration in molar units)

What value of measured pIC50 is listed for O=C(O)c1ccc(N2CC3(CCN(Cc4cc(OC(F)(F)F)ccc4-c4ccc(F)c(F)c4F)CC3)OC2=O)cc1 [Example 4-17, TFA salt] ?
9.78

Here is the next compound: COc1cc(CN2CCC3(CC2)CN(c2ccc(C(=O)O)cc2)C(=O)O3)cc2c(OC)cccc12 [Example 5-6, TFA salt]
9.77

Here is the next compound: Cc1cc(N2CC3(CCN(Cc4cn(C(C)(C)C)nc4-c4cc(F)c(Cl)cc4F)CC3)OC2=O)ccc1C(=O)O [Example 1-11, TFA salt]
8.20

Here is the next compound: O=C(O)c1ccc(N2CC3(CCN(Cc4cc(C(F)(F)F)ccc4-c4ccc(F)c(F)c4F)CC3)OC2=O)cc1 [Example 4-9, TFA salt]
9.36

Here is the next compound: COc1c(-c2cn(C(C)C)nc2CN2CCC3(CC2)CN(c2ccc(C(=O)O)cc2)C(=O)O3)ccc(F)c1F [Example 2-5, TFA salt]
6.72

Here is the next compound: CCCCn1cc(CN2CCC3(CC2)CN(c2ccc(C(=O)O)cc2)C(=O)O3)c(Cc2cc(F)c(F)cc2F)n1 [Example 1-40, TFA salt]
8.08

Here is the next compound: CC(C)(C)n1cc(CN2CCCC3(CC2)CN(c2ccc(C(=O)O)cc2)C(=O)O3)c(-c2ccc(F)c(F)c2F)n1 (stereo not shown) [Example 2-11, TFA salt]
6.68

Here is the next compound: CC(C)(C)n1cc(CN2CCC3(CC2)CN(c2ccc(C(=O)O)c(Cl)c2)C(=O)O3)c(-c2cc(F)c(Cl)cc2F)n1 [Example 1-13, TFA salt]
8.39

Here is the next compound: COc1ccc2c(CN3CCC4(CC3)CN(c3ccc(C(=O)O)cc3)C(=O)O4)nn(C3CC3)c2c1 [Example 6-12, TFA salt]
6.67

Here is the next compound: Cc1cccn2c(-c3cc(F)c(F)cc3F)c(CN3CCC4(CC3)CN(c3ccc(C(=O)O)cc3)C(=O)O4)nc12 [Example 6-39, TFA salt]
6.35

Here is the next compound: CCCn1cc(CN2CCC3(CC2)CN(c2ccc(C(=O)O)cc2)C(=O)O3)c2ccc(OC)cc21 [Example 6-20, TFA salt]
8.97

Here is the next compound: CCCn1nc(CN2CCC3(CC2)CN(c2ccc(C(=O)O)cc2)C(=O)O3)c2ccc(C#N)cc21 [Example 6-7, TFA salt]
5.92

Here is the next compound: COc1ccc2c(CN3CCC4(CC3)CN(c3ccc(C(=O)O)cc3)C(=O)O4)c[nH]c2c1 [Example 6-22, TFA salt]
8.06

###

For each entry below, report its IC50 value.
- system-tested: SSTR5 (Homo sapiens (Human))
- protocol-summary: SSTR5 binding assay
- condition-notes: CHO-K1 membranes expressing cloned human SSTR5
Where a name gives a salt, the structure may show the parent alone.
Write down the numeric answer in nM and omit the unit.

Requested read-out IC50, target or system SSTR5 (Homo sapiens (Human)), entry CC(C)n1nc(CN2CCC3(CC2)CN(c2ccc(C(=O)O)cc2)C(=O)O3)c2ccc(C(N)=O)cc21 [Example 6-8, TFA salt]
1200

Here is the next compound: CCOc1cc(CN2CCC3(CC2)CN(c2ccc(C(=O)O)cc2)C(=O)O3)c(-n2cc(C)cn2)cc1C [Example 4-28, TFA salt]
0.395

Here is the next compound: Cc1nc(-c2ccccc2)c(CN2CCC3(CC2)CN(c2ccc(C(=O)O)cc2)C(=O)O3)s1 [Example 6-33, TFA salt]
153

Here is the next compound: O=C(O)c1ccc(N2CC3(CCN(Cc4c(-c5ccccc5)nc5ccccn45)CC3)OC2=O)cc1 [Example 6-37, TFA salt]
13.4

Here is the next compound: CC(C)(C)n1cc(CN2CCC3(CC2)CN(c2ccc(-c4nn[nH]n4)cc2)C(=O)O3)c(-c2cc(F)c(Cl)cc2F)n1 [Example 1-29, TFA salt]
0.582

Here is the next compound: CC1(C)C2CCC(C2)C1n1cc(CN2CCC3(CC2)CN(c2ccc(C(=O)O)cc2)C(=O)O3)c(-c2ccc(F)c(F)c2F)n1 (stereo not shown) [Example 1-25, TFA salt]
0.74

Here is the next compound: CCOc1cc(CN2CCC3(CC2)CN(c2ccc(C4(C(=O)O)CC4)cc2)C(=O)O3)cc(OCC)c1-c1ccc(F)cc1 [Example 3-10, TFA salt]
8.41

Here is the next compound: O=C(O)c1ccc(N2CC3(CCN(Cc4ccc5c(c4)OCO5)CC3)OC2=O)cc1 [Example 5-17, TFA salt]
210

Here is the next compound: CC1(C)CCOc2c(Cl)cc(CN3CCC4(CC3)CN(c3ccc(C(=O)O)cc3)C(=O)O4)cc21 [Example 5-15, TFA salt]
1.25

Here is the next compound: COc1ccc2c(CN3CCC4(CC3)CN(c3ccc(C(=O)O)cc3)C(=O)O4)n[nH]c2c1 [Example 6-2, TFA salt]
1740

Here is the next compound: CC(C)n1nc(CN2CCC3(CC2)CN(c2ccc(C(=O)O)cc2)C(=O)O3)c2ccc(C#N)cc21 [Example 6-9, TFA salt]
121

Here is the next compound: CCOc1cc(CN2CCC3(CC2)CN(c2ccc(C(=O)O)cc2Cl)C(=O)O3)c(-c2ccc(F)c(F)c2F)cc1C [Example 4-22, TFA salt]
0.468

Here is the next compound: O=C(O)c1ccc(N2CC3(CCN(Cc4cnn(C5CCCCC5)c4-c4cc(F)c(F)cc4F)CC3)OC2=O)cc1 [Example 2-8, TFA salt]
10.4

###

- system-tested: SSTR5 (Homo sapiens (Human), UniProt P35346)
- protocol-summary: SSTR5 binding assay
- condition-notes: CHO-K1 membranes expressing cloned human SSTR5
Structures can show the parent of a compound that is named as a salt.
For each entry below, report its IC50 value.
Write down the numeric answer in nM and omit the unit.

What value of measured IC50 is listed for CC(C)(C)n1cc(CN2CCC3(CC2)CN(c2ccc(C(=O)O)cc2)C(=O)O3)c(-c2ccc(F)c(Cl)c2)n1 [Example 1-28, TFA salt] ?
0.421

Here is the next compound: CCCCn1nc(Cc2cc(F)c(F)cc2F)c(CN2CCC3(CC2)CN(c2ccc(C(=O)O)cc2)C(=O)O3)c1Cl [Example 1-44, TFA salt]
14.3

Here is the next compound: CCOc1ccc(-c2ccc(F)c(F)c2F)c(CN2CCC3(CC2)CN(c2ccc(C(=O)O)c(C)c2)C(=O)O3)c1 [Example 4-13, TFA salt]
0.983

Here is the next compound: Cc1cc(C(=O)O)ccc1N1CC2(CCN(Cc3cn(C(C)(C)C)nc3-c3ccc(F)c(F)c3F)CC2)OC1=O [Example 1-37, TFA salt]
1.59

###

- system-tested: SSTR5 (Homo sapiens (Human))
- protocol-summary: SSTR5 binding assay
- condition-notes: CHO-K1 membranes expressing cloned human SSTR5
Structures can show the parent of a compound that is named as a salt.
endpoint: IC50
Please answer using a numeric value trailed by its unit.

Requested read-out IC50, target or system SSTR5 (Homo sapiens (Human)), entry CCOc1ccc(-c2cc(F)c(F)cc2F)c(CN2CCC3(CC2)CN(c2ccc(C(=O)O)cc2)C(=O)O3)c1 [Example 4-1, TFA salt]
0.793 nM

Here is the next compound: Cc1nc2ccccn2c1CN1CCC2(CC1)CN(c1ccc(C(=O)O)cc1)C(=O)O2 [Example 6-38, TFA salt]
1010 nM

Here is the next compound: O=C(O)c1ccc(N2CC3(CCN(Cc4sc(-c5ccccc5)nc4-c4ccccc4)CC3)OC2=O)cc1 [Example 6-32, TFA salt]
69.1 nM

Here is the next compound: O=C(O)c1ccc(N2CC3(CCN(Cc4cc(C(F)(F)F)ccc4-c4ccc(F)nc4)CC3)OC2=O)cc1 [Example 4-10, TFA salt]
1.49 nM
